target: T1, Pf12 D1D2 (residues 28-304), untagged (Plasmodium falciparum, UniProt C6KSX0); test: BLI; Octet RED96e; nanobodies loaded on NTA sensors; untagged Pf12 or Pf41 (6-200 nM) or their domains in solution; PBS pH 7.4, 0.1% BSA, 0.05% TWEEN-20, 25°C; global 1:1 fit; conditions: both partners purified
T1 construct: Pf12, Plasmodium falciparum 6-cysteine protein, residues N28-S304 (domains D1 and D2); lacks the signal peptide and the GPI-anchor site; After TEV cleavage three residues, GAS, remain at the N-terminus as cloning artefacts; N-glycosylation sites kept; treated with PNGase F before crystallisation; also called Pf12 wildtype; source: Spodoptera frugiperda 21 cells, secreted into growth media, …
T1 sequence (C6KSX0 28-304): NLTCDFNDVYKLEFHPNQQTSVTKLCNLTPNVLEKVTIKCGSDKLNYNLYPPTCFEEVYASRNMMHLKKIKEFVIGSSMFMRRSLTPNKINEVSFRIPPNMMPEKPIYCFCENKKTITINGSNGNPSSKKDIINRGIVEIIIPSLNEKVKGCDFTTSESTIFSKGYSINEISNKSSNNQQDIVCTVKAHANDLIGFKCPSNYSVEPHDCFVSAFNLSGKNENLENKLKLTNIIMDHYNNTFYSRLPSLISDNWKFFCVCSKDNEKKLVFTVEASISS
Hi there, I'd appreciate the recorded Kd for every entry that follows.

Give the measured Kd of nanobody G7 (VHH, alpaca, immunised with Pf12-Pf41 complex; Pf12-specific; also called Nb G7; source: E. coli WK6, periplasmic extract, purified (HisTrap, SEC)) VHH: QVQLQESGGGLVQAGGSLRLSCAASGRTFSSYGMGWFRQAPGTEREFVAAISWSGDSTYYADSVKGRFTISIDKAKNTVYLQMNSLKPEDTAVYYCAADHALVVGGTYNYWGQGTQVTVSS .
~25 nM

Give the measured Kd of nanobody C9 (VHH, alpaca, immunised with Pf12-Pf41 complex; Pf12-specific; source: E. coli WK6, periplasmic extract, purified (HisTrap, SEC)) VHH: QVQLQESGGGLVQPGGSLRLSCAASGFTLDYYAIGWFRQAPGKEREGVSCISSSGGSTYYADSVKGRSTISRDNAKNTVYLQMNSLKPEDTAVYYCATDCLRDYGLEYVPGRYDYWGQGTQVTVSS .
< 0.01 nM

Give the measured Kd of nanobody A10 (VHH, alpaca, immunised with Pf12-Pf41 complex; Pf12-specific; source: E. coli WK6, periplasmic extract, purified (HisTrap, SEC)) VHH: QVQLQESGGGFVQPGGSLRLSCAASGFTLDYYFIGWFRQAPGKEREGVSCISSSDGSTYYAESVKGRFTISRDNAKNTVYLQMNSLKPEDTAVYYCATDKIVCSSDFIVDYGMDSRGKGTQVTVSS .
< 0.01 nM

Give the measured Kd of nanobody B5 (VHH, alpaca, immunised with Pf12-Pf41 complex; Pf12-specific; The 'Nb B5 of PDB ID 7KJH' used as a search model may be another nanobody of the same label; source: E. coli WK6, periplasmic extract, purified (HisTrap, SEC)) VHH: QVQLQESGGGLVQPGGSLRLSCAASGFTLDEYAMGWFRQAPGKEREGISCISSSDGTTFYADSVKGRFTISRDNAKNTVYLQMNSLKPEDTAVYYCATDCVGSYSRYWGQGTQVTVSS .
< 0.01 nM

Give the measured Kd of nanobody H9 (VHH, alpaca, immunised with Pf12-Pf41 complex; Pf12-specific; source: E. coli WK6, periplasmic extract, purified (HisTrap, SEC)) VHH: QVQLQESGGGLVQPGGSLRLSCAASGFTLDYYAIGWFRQAPGKEREGVSCIMSSDGSTYYADSVKGRFTISRDNAVNTVYLQMNGLKPEDTAVYYCATDKIVCGSGFIVDYGTDYRGKGTQVTVSS .
< 0.01 nM
